These entries and their values trace back to ChEMBL document CHEMBL1150384.

- System name: Nitric oxide synthase 1 (Homo sapiens)
- Sequence (P29475 whole entry): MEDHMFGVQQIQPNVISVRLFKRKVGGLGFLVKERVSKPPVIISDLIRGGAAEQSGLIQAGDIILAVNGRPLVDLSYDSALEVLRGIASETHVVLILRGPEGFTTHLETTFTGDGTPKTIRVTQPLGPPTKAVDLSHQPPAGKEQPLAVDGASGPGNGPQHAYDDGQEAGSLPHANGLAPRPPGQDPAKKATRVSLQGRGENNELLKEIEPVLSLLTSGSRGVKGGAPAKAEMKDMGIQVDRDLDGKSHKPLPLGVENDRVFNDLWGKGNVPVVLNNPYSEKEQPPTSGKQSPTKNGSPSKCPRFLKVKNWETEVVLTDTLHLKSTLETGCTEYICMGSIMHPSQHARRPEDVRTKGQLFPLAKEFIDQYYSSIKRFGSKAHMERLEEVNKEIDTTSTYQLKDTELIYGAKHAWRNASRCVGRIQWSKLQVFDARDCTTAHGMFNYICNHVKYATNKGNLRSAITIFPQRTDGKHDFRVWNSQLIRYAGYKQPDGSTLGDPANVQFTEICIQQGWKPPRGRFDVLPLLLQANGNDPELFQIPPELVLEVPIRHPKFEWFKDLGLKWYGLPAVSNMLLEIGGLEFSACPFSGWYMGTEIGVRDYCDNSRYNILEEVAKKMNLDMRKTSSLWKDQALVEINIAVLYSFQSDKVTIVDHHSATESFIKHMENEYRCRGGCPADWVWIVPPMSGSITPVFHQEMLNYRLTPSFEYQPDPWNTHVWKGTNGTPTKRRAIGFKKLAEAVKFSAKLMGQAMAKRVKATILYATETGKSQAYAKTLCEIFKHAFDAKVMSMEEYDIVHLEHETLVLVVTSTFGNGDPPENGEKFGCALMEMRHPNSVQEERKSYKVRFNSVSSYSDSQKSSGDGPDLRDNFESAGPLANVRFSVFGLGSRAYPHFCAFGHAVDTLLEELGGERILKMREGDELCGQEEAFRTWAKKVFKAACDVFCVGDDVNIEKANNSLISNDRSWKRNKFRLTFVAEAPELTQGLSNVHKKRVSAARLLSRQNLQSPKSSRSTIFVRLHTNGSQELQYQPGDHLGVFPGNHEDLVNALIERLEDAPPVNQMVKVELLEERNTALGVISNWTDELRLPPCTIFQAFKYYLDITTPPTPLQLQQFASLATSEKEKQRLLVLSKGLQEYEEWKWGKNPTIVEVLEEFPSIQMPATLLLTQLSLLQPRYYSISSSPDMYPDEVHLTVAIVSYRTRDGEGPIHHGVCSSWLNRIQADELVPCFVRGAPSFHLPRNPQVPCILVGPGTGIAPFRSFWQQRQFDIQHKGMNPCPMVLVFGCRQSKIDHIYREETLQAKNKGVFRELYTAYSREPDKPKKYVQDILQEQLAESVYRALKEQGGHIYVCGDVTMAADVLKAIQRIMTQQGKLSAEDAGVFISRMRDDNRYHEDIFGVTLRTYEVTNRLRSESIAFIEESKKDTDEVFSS
Using Ki as the sorting value, the categories are low band (below 0.2 µM), middle band (0.2 µM to below 60 µM), high band (60 µM or more)

Here are 7 molecules together with their reported answers.
Molecule	Assigned class
Brc1ccc(OCCCCCCn2ccnc2)cc1	middle band
N[C@@H](CCCCCCc1cnc[nH]1)C(=O)O	high band
CNC(=N)NN	middle band
N[C@@H](CCCCc1cncn1-c1ccccc1)C(=O)O	high band
CCSC(=N)N [ETHYLISOTHIOUREA]	low band
CNCc1cccc(NC(C)=N)c1	low band
CC(=N)Nc1cccc(CN(C)C)c1	low band

Note: place this molecule into its band. Item: `NC1=NCCS1` middle band
